# procedureText: NCI Yeast Anticancer Drug Screen. Data for the rad50 strain (AID 155);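 note: 0% = growth of vehicle-only cultures of the same strain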
# assayContext: S. cerevisiae rad50 strain growth inhibition; at 50.0 µM; hits give high values
About 79,000 compounds went through this panel and 15% of them were active in at least one assay; those are over-represented in the sample as a whole.
propertyName: growth inhibition (%)
Value expressed in %; do not type the unit.

Example compounds with recorded growth inhibition:
{"compound": "Cc1cccn2nnnc12", "unitsOfMeasure": "%", "recordedNumber": -7.75}
{"compound": "O=S(=O)(N/C(=C(\\NS(=O)(=O)c1ccccc1)c1ccccc1)c1ccccc1)c1ccccc1", "unitsOfMeasure": "%", "recordedNumber": 63.7}
{"compound": "C/C(=N\\NC(C)(C)C)c1sc(-c2nc(C)c(/C(C)=N/NC(C)(C)C)s2)nc1C", "unitsOfMeasure": "%", "recordedNumber": 46.5}
{"compound": "Cc1cccc(C2CCCCC2OS(C)(=O)=O)c1 (stereo not given)", "unitsOfMeasure": "%", "recordedNumber": -2.95}
{"compound": "CC1=C/C(=N/NS(=O)(=O)c2ccc(C)cc2)CC(C)(C)C1", "unitsOfMeasure": "%", "recordedNumber": 27.6}

Form field: reported growth inhibition of Clc1ccccc1CSc1cnnc(Cl)c1SCc1ccccc1Cl 28.6

Form field: reported growth inhibition of CCc1ccc(NC(=O)c2ccc(C(=O)Nc3ccc(CC)cc3)cc2)cc1 3.2

Form field: reported growth inhibition of [N-]=[N+]=NC1(Cc2ccccc2)C(=O)c2cccc3c2N(CCC3)C1=O (stereo not given) 4.25

---

# procedureText: NCI Yeast Anticancer Drug Screen. Data for the cln2 rad14 strain (AID 165);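 note: 0% = growth equal to vehicle treated cultures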
# assayContext: S. cerevisiae cln2 rad14 strain, at 50.0 µM, hits give high values
This is part of a sample that, as a whole, favours compounds with a hit. Of some 79,000 tested, about 15% had one in any assay.
Property: growth inhibition; scope: individual molecules
Value expressed in %; do not type the unit.

{"molecule": "CCCCNC(=S)/N=C/c1c(O)cc(C)oc1=O", "propertyName": "growth inhibition", "recordedNumber": 2.25}

Form field: reported growth inhibition of CN(C)C(=Nc1ccccc1)N(C)N 0.75

Form field: reported growth inhibition of NC(=O)C1C2CC3C(C2O)C31C(N)=O (stereo not drawn) -30.1

---

Property: growth inhibition; scope: individual compounds
# procedureText: NCI Yeast Anticancer Drug Screen. Data for the mlh1 rad18 strain (AID 175)
# assayContext: S. cerevisiae mlh1 rad18 strain growth inhibition; at 50.0 µM; hits give high values
This is part of a sample that, as a whole, favours compounds with a hit. Of some 79,000 tested, about 15% had one in any assay. The source made the active and inactive calls. Rule as the data show it: active = growth inhibition above about 70%; inactive = the rest.

{"compound": "CC1(C2(C)CC2(Br)Br)CC1(Br)Br (centres undefined)", "propertyName": "growth inhibition", "result": "-0.65% (inactive)"}
{"compound": "Nc1ccc(S(=O)(=O)NC2C(O)OC(CO)C(O)C2O)cc1 (centres undefined)", "propertyName": "growth inhibition", "result": "28.4% (inactive)"}
{"compound": "O=C(Nc1ccc2ccccc2c1)c1ccc(Cl)cc1Cl", "propertyName": "growth inhibition", "result": "-14.8% (inactive)"}

Form field: reported growth inhibition of COc1cccc(Nc2sc(C(=O)c3cc4cc(Cl)ccc4o3)c(N)c2C#N)c1 -7.55% (inactive)
